Tested on: 327498-153-R-J2-PDC complex spheroid growth, % test/control;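 note: spheroids exposed to compound for 7 days after 3 days of growth; 100% = DMSO vehicle control wells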
assay_notes: Anticancer human tumor 327498-153-R-J2-PDC patient-derived uterine carcinosarcoma cell line growth inhibition [Asc]
condition_info: second compound 1 µM; first compound 0.1 µM; active compounds read low
I'd appreciate it if you could supply viability, T/C values for the items below.

Challenge: Record request: viability, T/C value, item C#Cc1c(F)ccc2cc(O)cc(-c3ncc4c(N5CC6CCC(C5)N6)nc(OCC56CCCN5CC(F)C6)nc4c3F)c12 (stereo unspecified) + Cc1c(S(C)(=O)=O)c(-c2cc(F)cc(N3CCN(c4ccc(NS(=O)(=O)c5ccc(NC(CCN6CCC(C(=O)OCCCP(=O)(O)O)CC6)CSc6ccccc6)c(S(=O)(=O)C(F)(F)F)c5)cc4)CC3)c2)c(-c2ccc(Cl)cc2)n1C(C)C
Response given: 101%

Challenge: Record request: viability, T/C value, item CCN1CCN(Cc2ccc(Nc3ncc(F)c(-c4cc(F)c5nc(C)n(C(C)C)c5c4)n3)nc2)CC1 + CNC(C)C(=O)NC1CN(S(=O)(=O)c2cccc(S(=O)(=O)N3CCC4CCC(C(=O)NC(c5ccccc5)c5ccccc5)N4C(=O)C(NC(=O)C(C)NC)C3)c2)CCC2CCC(C(=O)NC(c3ccccc3)c3ccccc3)N2C1=O
Response given: 82.1%

Challenge: Record request: viability, T/C value, item COc1c(OCCCN2CCOCC2)ccc2c3n(c(=NC(=O)c4cnc(N)nc4)nc12)CCN3 + CNC(C)C(=O)NC1CN(S(=O)(=O)c2cccc(S(=O)(=O)N3CCC4CCC(C(=O)NC(c5ccccc5)c5ccccc5)N4C(=O)C(NC(=O)C(C)NC)C3)c2)CCC2CCC(C(=O)NC(c3ccccc3)c3ccccc3)N2C1=O
Response given: 65%

Challenge: Record request: viability, T/C value, item C=C(F)C(=O)N1CCN(c2nc(OCC3CCCN3C)nc3c2CCN(c2cccc4cccc(Cl)c24)C3)CC1CC#N (stereo unspecified) + Cc1c(S(C)(=O)=O)c(-c2cc(F)cc(N3CCN(c4ccc(NS(=O)(=O)c5ccc(NC(CCN6CCC(C(=O)OCCCP(=O)(O)O)CC6)CSc6ccccc6)c(S(=O)(=O)C(F)(F)F)c5)cc4)CC3)c2)c(-c2ccc(Cl)cc2)n1C(C)C
Response given: 58.5%

Challenge: Record request: viability, T/C value, item CNC(C)C(=O)NC1CN(S(=O)(=O)c2cccc(S(=O)(=O)N3CCC4CCC(C(=O)NC(c5ccccc5)c5ccccc5)N4C(=O)C(NC(=O)C(C)NC)C3)c2)CCC2CCC(C(=O)NC(c3ccccc3)c3ccccc3)N2C1=O (stereo unspecified) + Cc1c(S(C)(=O)=O)c(-c2cc(F)cc(N3CCN(c4ccc(NS(=O)(=O)c5ccc(NC(CCN6CCC(C(=O)OCCCP(=O)(O)O)CC6)CSc6ccccc6)c(S(=O)(=O)C(F)(F)F)c5)cc4)CC3)c2)c(-c2ccc(Cl)cc2)n1C(C)C
Response given: 80.3%

Challenge: Record request: viability, T/C value, item O=C(c1cc(Cc2n[nH]c(=O)c3ccccc23)ccc1F)N1CCN(C(=O)C2CC2)CC1 + CNC(C)C(=O)NC1CN(S(=O)(=O)c2cccc(S(=O)(=O)N3CCC4CCC(C(=O)NC(c5ccccc5)c5ccccc5)N4C(=O)C(NC(=O)C(C)NC)C3)c2)CCC2CCC(C(=O)NC(c3ccccc3)c3ccccc3)N2C1=O
Response given: 100%
